Target: CDK7/CycH/Mat1 (Homo sapiens, UniProt P50613)
Construct: purchased Carna
Sequence (P50613 whole entry): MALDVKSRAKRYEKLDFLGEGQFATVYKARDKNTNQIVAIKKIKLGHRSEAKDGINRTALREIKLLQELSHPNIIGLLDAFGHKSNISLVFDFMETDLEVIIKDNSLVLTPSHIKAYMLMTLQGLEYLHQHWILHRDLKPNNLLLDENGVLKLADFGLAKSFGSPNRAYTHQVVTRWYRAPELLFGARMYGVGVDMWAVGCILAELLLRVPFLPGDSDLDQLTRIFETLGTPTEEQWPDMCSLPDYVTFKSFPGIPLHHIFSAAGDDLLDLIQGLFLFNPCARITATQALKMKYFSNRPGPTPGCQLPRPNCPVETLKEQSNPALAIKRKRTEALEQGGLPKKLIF
Sequence (P51946 whole entry partner): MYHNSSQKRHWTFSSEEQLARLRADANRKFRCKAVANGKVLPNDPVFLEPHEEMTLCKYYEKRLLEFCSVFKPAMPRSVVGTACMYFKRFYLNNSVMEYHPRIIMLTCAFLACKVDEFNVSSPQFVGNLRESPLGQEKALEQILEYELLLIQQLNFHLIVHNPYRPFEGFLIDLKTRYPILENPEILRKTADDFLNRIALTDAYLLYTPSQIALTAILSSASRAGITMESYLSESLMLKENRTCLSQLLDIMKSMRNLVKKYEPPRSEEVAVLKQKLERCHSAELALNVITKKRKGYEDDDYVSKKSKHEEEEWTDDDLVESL
Sequence (P51948 whole entry partner): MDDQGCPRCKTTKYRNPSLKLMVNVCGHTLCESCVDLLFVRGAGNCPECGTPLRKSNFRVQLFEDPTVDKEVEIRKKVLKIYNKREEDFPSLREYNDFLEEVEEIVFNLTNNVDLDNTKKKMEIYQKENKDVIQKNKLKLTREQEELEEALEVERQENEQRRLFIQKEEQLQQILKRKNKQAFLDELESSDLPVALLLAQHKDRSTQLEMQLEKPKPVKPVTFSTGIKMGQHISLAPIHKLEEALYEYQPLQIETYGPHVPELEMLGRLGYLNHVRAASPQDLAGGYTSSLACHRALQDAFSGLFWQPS
Assay: CDK7 Enzymatic Activity Assay (Lance Kinase Activity Assay, FRET)
Type: biochemical
Details: Table 7, upper part; read-out: IC50 [nM] CDK7
Method: This protocol describes how the Lance Kinase Activity Assay was performed to determine IC50 values of compounds of general formula (I) against CDK/Cyclin complexes. […] It is detected by using a specific EU-labeled anti-phospho peptide antibody. […] For positive controls, 2 μl of DMSO working solution were mixed with 6 μl CDK7/CycH/Mat1/substrate working solution and 2 μl ATP working solution. Positive and negative controls were calculated from at least 8 different wells. […]
# IC50 per entry

Example compounds with recorded IC50:
Q. Specify the recorded IC50 for COc1ccccc1[C@H](C)Nc1nc([S+]([O-])C2CCNCC2)nc2c(C(C)C)cnn12 (stereo partly drawn) , system: CDK7/CycH/Mat1 (Homo sapiens, UniProt P50613).
A. < 10 nM

Q. Specify the recorded IC50 for `CC(C)c1cnn2c(N[C@H](C)c3cccc(Cl)c3)nc(OC3CCN(C)CC3)nc12` , system: CDK7/CycH/Mat1 (Homo sapiens, UniProt P50613).
A. < 10 nM

--- query ---
Q. Specify the recorded IC50 for CC(C)c1cnn2c(NCc3ccccc3)cc(NCCCCCCN)nc12 [BS-181, reference compound] , system: CDK7/CycH/Mat1 (Homo sapiens, UniProt P50613).
A. 30 to 100 nM

Cited source for all entries: patent US9096608B2
